Assay: log P determination by HPLC on reversed-phase column (C 18), EEC Directive 79/831 Annex V.A8
Assay type: physicochemical
Conditions: reversed-phase C18 HPLC column, C 18 reversed phase, 40° C., 0.1% aqueous formic acid and acetonitrile, linear gradient 10% to 90% acetonitrile
Measured chromatographic logP of individual entries
Just the number, please.

- chem-smiles: "ClC1(c2ccsc2CNC2CC2)CC1"
  chromatographic logP: 0.87
- chem-smiles: "O=Cc1sccc1C1(Cl)CC1"
  chromatographic logP: 2.41
- chem-smiles: "Cc1cc(C2(Cl)CC2)c(CN(C(=O)c2c(C(F)F)nn(C)c2F)C2CC2)s1"
  chromatographic logP: 3.76
- chem-smiles: "N#CC1(c2ccsc2CO)CC1"
  chromatographic logP: 0.63
- chem-smiles: "CC1(c2ccsc2CO)CC1"
  chromatographic logP: 2.09

Okay, now this compound:
Problem: What value of chromatographic logP has been reported for the following compound? `COC1(c2cc(C)sc2CNC2CC2)CC1`
Result: 1.07

====

Experiment: log P determination by HPLC on reversed-phase column (C 18), EEC Directive 79/831 Annex V.A8
Type: physicochemical
Settings: C 18 reversed phase, 40° C., 0.1% aqueous formic acid and acetonitrile, linear gradient 10% to 90% acetonitrile
attribute-measured: logP
Just the number, please.

- chem-smiles: "Cn1nc(C(F)F)c(C(=S)N(Cc2cc(Cl)cnc2C2(C)CC2)C2CC2)c1Cl"
  quantitative-result: 3.71

Problem: What value of logP has been reported for the following compound? `Cn1nc(C(F)F)c(C(=O)N(Cc2cc(C3=CCCC3)cnc2C2(C)CC2)C2CC2)c1F`
Result: 2.05

Problem: Also, `Cc1cnc(C2(C)CC2)c(CN(C(=S)c2c(C(F)F)nn(C)c2F)C2CC2)c1` please.
Result: 1.59

Problem: Also, `Cn1nc(C(F)F)c(C(=S)N(Cc2sccc2C2(C)CC2)C2CC2)c1Cl` please.
Result: 4.44

====

Assay: log P determination by HPLC on reversed-phase column (C 18), EEC Directive 79/831 Annex V.A8
Type: physicochemical
Settings: C 18 reversed phase, 40° C., 0.1% aqueous formic acid and acetonitrile, linear gradient 10% to 90% acetonitrile
Protocol: In table 1, the log P values were determined in accordance with EEC Directive 79/831 Annex V.A8 by HPLC (High Performance Liquid Chromatography) on a reversed-phase column (C 18), using the method described below: Temperature: 40° C.; Mobile phases: 0.1% aqueous formic acid and acetonitrile; linear gradient from 10% acetonitrile to 90% acetonitrile. […]
Note to self: use label 1 only for logP readings below 3; a reading exactly at 3 still gets label 0.

# count of solved cases: 5
- molecule: "Cc1cc(C2(Cl)CC2)c(CN(C(=O)c2c(C(F)F)nn(C)c2Cl)C2CC2)s1 [I.16]"
  label: "label 0"
- molecule: "Cn1nc(C(F)F)c(C(=O)N(Cc2cc(-c3ccccc3)cnc2C2(C)CC2)C2CC2)c1Cl [I.31]"
  label: "label 1"
- molecule: "Cn1nc(C(F)F)c(C(=S)N(Cc2cc(Cl)cnc2C2(C)CC2)C2CC2)c1F [I.23]"
  label: "label 0"
- molecule: "Cn1nc(C(F)F)c(C(=S)N(Cc2cccnc2C2(C)CC2)C2CC2)c1Cl [I.19]"
  label: "label 1"
- molecule: "C=Cc1cnc(C2(C)CC2)c(CN(C(=O)c2c(C(F)F)nn(C)c2Cl)C2CC2)c1 [I.32]"
  label: "label 1"

Problem: I'd appreciate it if you could check whether Cn1nc(C(F)F)c(C(=O)N(Cc2cc(Br)cnc2C2(C)CC2)C2CC2)c1Cl [I.07] has logP smaller than 3.
Result: label 0

====

Measured chromatographic logP of individual entries
Assay: log P determination by HPLC on reversed-phase column (C 18), EEC Directive 79/831 Annex V.A8
Assay type: physicochemical
Conditions: reversed-phase C18 HPLC column, C 18 reversed phase, 40° C., 0.1% aqueous formic acid and acetonitrile, linear gradient 10% to 90% acetonitrile
Just the number, please.

The examples below pair each entry with its known result.
- chem-smiles: "Cc1cc(C2(Cl)CC2)c(CNC2CC2)s1"
  chromatographic logP: 1.2
- chem-smiles: "Cc1cc(C2(C)CC2)c(CO)s1"
  chromatographic logP: 2.52
- chem-smiles: "CC1(c2ccsc2CNC2CC2)CC1"
  chromatographic logP: 0.7
- chem-smiles: "Cc1cc(C2(Cl)CC2)c(C=O)s1"
  chromatographic logP: 2.75
- chem-smiles: "Cc1cc(C2(C)CC2)c(CBr)s1"
  chromatographic logP: 2.54

Okay, now this compound:
Problem: What value of chromatographic logP has been reported for the following compound? `CC1(c2ccsc2CBr)CC1`
Result: 2.14

====

Assay: log P determination by HPLC on reversed-phase column (C 18), EEC Directive 79/831 Annex V.A8
Assay type: physicochemical
Details: C 18 reversed phase, 40° C., 0.1% aqueous formic acid and acetonitrile, linear gradient 10% to 90% acetonitrile
attribute-measured: logP

The examples below pair each entry with its known result.
- chem-smiles: "Cn1nc(C(F)F)c(C(=O)N(Cc2cc(-c3ccsc3)cnc2C2(C)CC2)C2CC2)c1F"
  logP: 2.12
- chem-smiles: "Cc1cnc(C2(C)CC2)c(CN(C(=O)c2c(C(F)F)nn(C)c2F)C2CC2)c1"
  logP: 1.42

Problem: What value of logP has been reported for the following compound? `Cn1nc(C(F)F)c(C(=O)N(Cc2cccnc2C2(C)CC2)C2CC2)c1F`
Result: 1.28

Problem: Also, `Cc1cc(C2(Cl)CC2)c(CN(C(=S)c2c(C(F)F)nn(C)c2Cl)C2CC2)s1` please.
Result: 4.56

Problem: Also, `Cn1nc(C(F)F)c(C(=O)N(Cc2cccnc2C2(C)CC2)C2CC2)c1Cl` please.
Result: 1.41

====

Measured logP of individual entries
Test: log P determination by HPLC on reversed-phase column (C 18), EEC Directive 79/831 Annex V.A8
Assay type: physicochemical
Conditions: C 18 reversed phase, 40° C., 0.1% aqueous formic acid and acetonitrile, linear gradient 10% to 90% acetonitrile

- chem-smiles: "Cn1nc(C(F)F)c(C(=O)N(Cc2sccc2C2(C)CC2)C2CC2)c1F"
  result: 3.70

Problem: What value of logP has been reported for the following compound? `Cc1cnc(C2(C)CC2)c(CN(C(=O)c2c(C(F)F)nn(C)c2Cl)C2CC2)c1`
Result: 1.54

Problem: Also, `Cn1nc(C(F)F)c(C(=S)N(Cc2sccc2C2(C)CC2)C2CC2)c1F` please.
Result: 4.28

====

Assay: log P determination by HPLC on reversed-phase column (C 18), EEC Directive 79/831 Annex V.A8
Assay type: physicochemical
Conditions: C 18 reversed phase, 40° C., 0.1% aqueous formic acid and acetonitrile, linear gradient 10% to 90% acetonitrile
attribute-measured: logP

- chem-smiles: "Cn1nc(C(F)F)c(C(=S)N(Cc2sccc2C2(Cl)CC2)C2CC2)c1Cl"
  attribute-measured: "logP"
  result: 4.19
- chem-smiles: "Cc1cnc(C2(C)CC2)c(CN(C(=S)c2c(C(F)F)nn(C)c2Cl)C2CC2)c1"
  attribute-measured: "logP"
  result: 1.69
- chem-smiles: "COC1(c2cc(C)sc2CN(C(=O)c2c(C(F)F)nn(C)c2F)C2CC2)CC1"
  attribute-measured: "logP"
  result: 3.37

Okay, now this molecule:
Problem: What value of logP has been reported for the following molecule? `Cn1nc(C(F)F)c(C(=O)N(Cc2cc(Cl)cnc2C2(C)CC2)C2CC2)c1F`
Result: 2.88
